# target_or_test_system: B-Raf kinase (SEQ. ID NO: 2) (Homo sapiens (Human), UniProt P15056)
# Sequence (P15056 416-766): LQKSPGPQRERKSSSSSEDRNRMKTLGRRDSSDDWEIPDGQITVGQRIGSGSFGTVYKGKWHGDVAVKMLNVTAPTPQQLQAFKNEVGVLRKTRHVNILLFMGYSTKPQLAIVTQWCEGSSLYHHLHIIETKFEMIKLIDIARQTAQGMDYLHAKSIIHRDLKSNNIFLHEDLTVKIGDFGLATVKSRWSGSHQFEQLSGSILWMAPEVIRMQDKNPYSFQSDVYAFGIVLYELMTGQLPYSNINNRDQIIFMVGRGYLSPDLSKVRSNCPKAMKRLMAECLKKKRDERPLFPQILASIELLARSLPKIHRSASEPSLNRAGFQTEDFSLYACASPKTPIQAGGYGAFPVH
# assay_procedure: Biochemical Assay for B-Raf (2)
# particulars: Table J, biochemical assay (2); read-out: BRAF (2)
Entries and their measured IC50 follow.

Use these answered entries as a reference point.
CNC(=O)c1cc(-c2cc(-c3cc(NC(=O)c4ccnc(C(C)(C)F)c4)ccc3C)cc(C)n2)ccn1 [Example 470]    100 to 500 nM
CNC(=O)c1cc(-c2cncc(-c3cc(NC(=O)c4ccnc(C(C)(F)F)c4)ccc3C)c2)ncn1 [Example 439]    ≤ 100 nM
CNC(=O)c1cc(-c2cc(-c3cc(NC(=O)c4cnnc(C(C)(C)F)c4)ccc3C)ccn2)ccn1 [Example 495]    ≤ 100 nM
Cc1ncc(NC(=O)c2ccnc(C(C)(F)F)c2)cc1-c1ccnc(-c2ccnc(NC(=O)C3CC3)c2)c1 [Example 466]    ≤ 100 nM
CNC(=O)c1cc(-c2cc(-c3cc(NC(=O)c4ccnc(C(C)(C)F)c4)cc(F)c3C)ccn2)ccn1 [Example 480]    100 to 500 nM
CNC(=O)c1cc(-c2cc(-c3cc(NC(=O)c4ccnc(C(C)(F)F)c4)cnc3C)ccn2)ccn1 [Example 463]    100 to 500 nM

Task: Item under review: CNC(=O)c1cc(-c2cc(-c3cc(NC(=O)c4ccnc(C(C)(C)F)c4)ncc3C)ccn2)ccn1 [Example 499] . Reported IC50?
Result: 100 to 500 nM

Task: # lookup: IC50 of Cc1ccc(NC(=O)c2ccnc(C(C)(F)F)c2)cc1-c1ccnc(-c2ccnc(NC(=O)C3CC3)c2)c1 [Example 459]
Result: ≤ 100 nM

Task: So what does the record say about IC50 for Cc1ncc(NC(=O)c2ccnc(C3(C#N)CC3)c2)cc1-c1ccnc(-c2ccnc(NC(=O)C3CC3)c2)c1 [Example 461] ?
Result: ≤ 100 nM

Task: I would be grateful if you could share the reported IC50 for CNC(=O)c1cc(-c2cc(-c3cc(F)cc(NC(=O)c4ccnc(C(C)(C)F)c4)c3F)ccn2)ccn1 [Example 475] .
Result: 1000 to 10000 nM

Task: GET /values?readout=IC50&item= Cc1cc(-c2cc(NC(=O)c3ccnc(C(C)(C)F)c3)ccc2C)cc(-c2ccnc(C(N)=O)c2)n1 [Example 484]
Result: ≤ 100 nM

Values compiled from patent US12319655B2.
